Every entry's value here was drawn from patent US11351151B2.

- System: T.T
- Run description: Cell proliferation assay (Alamar Blue)
- Type: cell-based
- Experimental setup: Homo sapiens, TT, 144 h; T.T tumor cell line; 6 days
# Lookup of reported IC50 keyed by entry

>  <Compound>
Cc1ccc(F)c(NC(=O)Nc2ccc(-c3cccc4c3c(N)nn4C(=O)CCCCCCCCCCCNC(=O)C[C@H](N)C(=O)O)cc2)c1 [Compound 12]

>  <Target of assay>
T.T

>  <IC50>
> 30 µM

$$$$
>  <Compound>
Cc1ccc(F)c(NC(=O)Nc2ccc(-c3cccc4c3c(N)nn4C(=O)CCCCCCCCCCCNC(=O)C[C@H](N)C(=O)N[C@@H](CCC(=O)O)C(=O)O)cc2)c1 [Compound 7]

>  <Target of assay>
T.T

>  <IC50>
> 100 µM

$$$$
>  <Compound>
Cc1ccc(F)c(NC(=O)Nc2ccc(-c3cccc4[nH]nc(N)c34)cc2)c1 [Linifanib, reference compound]

>  <Target of assay>
T.T

>  <IC50>
4.86 µM

$$$$
>  <Compound>
Cc1ccc(F)c(NC(=O)Nc2ccc(-c3cccc4c3c(N)nn4C(=O)CCCCCNC(=O)C[C@H](N)C(=O)N[C@@H](CCC(=O)N[C@@H](CCC(=O)N[C@@H](CCC(=O)N[C@@H](CCC(=O)N[C@@H](CCC(=O)N[C@@H](CCC(=O)N[C@@H](CCC(=O)N[C@@H](CCC(=O)N[C@@H](CCC(=O)O)C(=O)O)C(=O)O)C(=O)O)C(=O)O)C(=O)O)C(=O)O)C(=O)O)C(=O)O)C(=O)O)cc2)c1 [Compound 6]

>  <Target of assay>
T.T

>  <IC50>
> 100 µM

$$$$
>  <Compound>
Cc1ccc(F)c(NC(=O)Nc2ccc(-c3cccc4c3c(N)nn4C(=O)CCCCCCCCCCCNC(=O)C[C@H](N)C(=O)N[C@@H](CCC(=O)N[C@@H](CCC(=O)N[C@@H](CCC(=O)N[C@@H](CCC(=O)O)C(=O)O)C(=O)O)C(=O)O)C(=O)O)cc2)c1 [Compound 8]

>  <Target of assay>
T.T

>  <IC50>
> 100 µM

$$$$

Asked: Data request, read-out IC50, for Cc1ccc(F)c(NC(=O)Nc2ccc(-c3cccc4c3c(N)nn4C(=O)CCCCCCCCCCCNC(=O)C[C@H](N)C(=O)N[C@@H](CCC(=O)N[C@@H](CCC(=O)N[C@@H](CCC(=O)N[C@@H](CCC(=O)N[C@@H](CCC(=O)N[C@@H](CCC(=O)N[C@@H](CCC(=O)N[C@@H](CCC(=O)N[C@@H](CCC(=O)O)C(=O)O)C(=O)O)C(=O)O)C(=O)O)C(=O)O)C(=O)O)C(=O)O)C(=O)O)C(=O)O)cc2)c1 [Compound 9]
Given back: > 100 µM

Asked: What value of IC50 has been reported for the following compound? Cc1ccc(F)c(NC(=O)Nc2ccc(-c3cccc4c3c(N)nn4C(=O)CCCCCNC(=O)C[C@H](N)C(=O)N[C@@H](CCC(=O)O)C(=O)O)cc2)c1 [Compound 4]
Given back: > 100 µM

Asked: What value of IC50 has been recorded for this entry: Cc1ccc(F)c(NC(=O)Nc2ccc(-c3cccc4c3c(N)nn4C(=O)CCCCCNC(=O)C[C@H](N)C(=O)O)cc2)c1 [Compound 11]
Given back: > 100 µM

Asked: Returns the measured IC50 for the input compound. Input: Cc1ccc(F)c(NC(=O)Nc2ccc(-c3cccc4c3c(N)nn4C(=O)C[C@H](N)C(=O)N[C@@H](CCC(=O)N[C@@H](CCC(=O)N[C@@H](CCC(=O)N[C@@H](CCC(=O)O)C(=O)O)C(=O)O)C(=O)O)C(=O)O)cc2)c1 [Compound 2]
Given back: 8.29 µM
